# Test system: LOX IMVI melanoma
# ASSAY COMMENT: NCI-60 one-dose screen, 48 h
# TEST PARAMETERS: 10 µM unless noted
# Experimental: Growth inhibition of the LOX IMVI human tumor cell line is measured as a screen for anti-cancer activity. Cells are grown in 96 well plates and exposed to the test compound for 48 hours. Compounds are tested at a single concentration, which is 10^-5 M for most compounds. The reported endpoint is percent growth (GI% or GIPRCNT), where numbers from 0 - 100% represent growth inhibition, and numbers from -100% - 0 represent cell death. For example, a value of 40 represents 60% growth inhibition. […]
About 83,000 compounds went through this panel and 20% of them were active in at least one assay; those are over-represented in the sample as a whole. Activity calls are given as the source filed them. Rule for the calls: active = growth percent below 10; inactive = the rest.
Can you answer with just one of these options? t for active, f for inactive

Prompt line: Recorded test outcome, item O=C1/C=C/[C@@H](O)[C@@H]2C[C@@H](O)C[C@H]2/C=C/CCC[C@H](CCc2ccc3ncccc3c2)O1
Response line: t

Prompt line: Recorded test outcome, item c1ccc(Cn2cnc3ccc(-c4nc(-c5ccc6c(c5)ncn6C5CCCCC5)cn5ccnc45)cc32)cc1
Response line: t

Prompt line: Recorded test outcome, item CN(C)CCn1c2ccc(Br)cc2c2nc3ccccc3nc21
Response line: f

* * *

# System: SNB-75 CNS
# ASSAY COMMENT: NCI-60 one-dose screen, 48 h (100 = growth as untreated, 0 = no growth, -100 = all killed)
# TEST PARAMETERS: 10 µM unless noted
About 83,000 compounds went through this panel and 20% of them were active in at least one assay; those are over-represented in the sample as a whole.
Consider the following molecules; for each one, report its growth.
One number for each entry, in %.

Use these answered entries as a reference point.
Sure, the documented growth for O=C1c2ccccc2CCC12OC2c1cn(-c2ccccc2)nc1-c1ccc(Cl)cc1 (centres undefined) is 90.9

Sure, the documented growth for CNC(=O)c1cccc(Cn2nc(C)c(NC(=O)c3ccc(COc4ccc(C(F)(F)F)cc4C)cc3)c2C)n1 is 80.9

Sure, the documented growth for CCOC(=O)C1=C(CCl)NC(=O)NC1c1ccc2c(c1)OCO2 (centres undefined) is 77.6

Sure, the documented growth for CC(C)(C)c1cc(/C=N/NC(=O)c2ccccc2NC(=O)c2cccs2)c(O)c(C(C)(C)C)c1 is 34.9

Sure, the documented growth for COc1cc(OC)cc(C(=O)C[n+]2cccc3cc[nH]c32)c1 is 86.9

Below are some molecules; for each one, tell me its growth.
1. O=S(=O)(NCCCNc1nccc(-c2c(-c3cccc(F)c3)nc3sccn23)n1)c1cccc2ccccc12
2. COC(=O)C1=C(C(=O)ON)C2C=CC1(C(Cc1ccccc1)Nc1ccccc1)O2 (centres undefined)
3. Oc1cccc(CCc2ccc(Oc3cc(CCc4cccc(O)c4)cc(O)c3O)cc2)c1
4. CCN(CC)c1ccc(/C=N/NC(=O)CSc2nc3ccccc3c(=O)n2CCc2ccc(S(N)(=O)=O)cc2)c(O)c1

Response line:
1: 86.5; 2: 106; 3: 72.8; 4: 59.2

* * *

# System: NCI-H322M lung
# ASSAY COMMENT: NCI-60 one-dose screen, 48 h
# TEST PARAMETERS: 10 µM unless noted
This is part of a sample that, as a whole, favours compounds with a hit. Of some 83,000 tested, about 20% had one in any assay. Activity calls are given as the source filed them. Rule for the calls: active = growth percent below 10; inactive = the rest.
Can you answer with just one of these options? yes (active), no (inactive)

Prompt line: Recorded test outcome, item CC1=C(C(=O)/C=C/c2ccc(N(C)C)cc2)C(c2ccccc2)NC(=S)N1 (stereo not given)
Response line: no

Prompt line: Recorded test outcome, item O=C(Cc1ccc(/C=C/C(=O)c2ncc[nH]2)cc1)Nc1ccc(Cl)cc1
Response line: no

Prompt line: Recorded test outcome, item NC1[C@H](c2c[nH]c3ccccc23)c2c([nH]c3ccccc23)[C@H]1c1c[nH]c2ccccc12 (stereo not given in full)
Response line: no
